Source of measurements: patent US6541463B1

The following compounds are shown together with reported Antiandrogenic Activity Shionogi, DHT E^−6 values.
Tested on: Shionogi mouse mammary carcinoma cells
Assay: Antiandrogenic activity: inhibition of DHT-induced proliferation of Shionogi cells
Format: cell-based
Conditions: Table 4′; DHT-induced proliferation, E^−6 (10^−6 M)
experimental-readout: Antiandrogenic Activity Shionogi, DHT E^−6 (%)

> print(dat)
                                   compound  experimental.result
1  CC1CCC2(CCC3C4CCc5ccccc5C4CCC32C)OC1=O (centres unmarked)                  −25
2  CC1(C)CCC2(CCC3C4CCc5cc(O)c([N+](=O)[O-])cc5C4CCC32C)OC1=O (centres unmarked)                  −43
3  CC1CCC2(CCC3C4CCc5cc(O)c([N+](=O)[O-])cc5C4CCC32C)OC1=O (centres unmarked) [EM-1126]                  −49
4  CC1(C)CCC2(CCC3C4CCc5cc(O)c(C#N)cc5C4CCC32C)OC1=O (centres unmarked)                  −10
5  COCCOc1cc2c(cc1C(F)(F)F)[C@H]1CC[C@@]3(C)[C@@H](CC[C@@]34CCC(C)(C)C(=O)O4)[C@@H]1CC2                  −53
6  CC12CCC3c4ccc(F)cc4CCC3C1CCC21CCCC(=O)O1 (centres unmarked)                  −38
7  COC(=O)c1cc2c(cc1O)CCC1C2CCC2(C)C1CCC21CCC(C)(C)C(=O)O1 (centres unmarked)                  −51
8  COCCOc1ccc2c(c1)CCC1C2CCC2(C)C1CCC21CCC(C)(C)C(=O)O1 (centres unmarked)                  −44

* * *

Molecular target: human type 3 17β-hydroxysteroid dehydrogenase (Homo sapiens, UniProt P37058)
Construct: expressed in transfected cells; host or cells: 293 cells, transient transfection; microsomal fraction (100 000×g pellet)
Sequence (P37058 whole entry): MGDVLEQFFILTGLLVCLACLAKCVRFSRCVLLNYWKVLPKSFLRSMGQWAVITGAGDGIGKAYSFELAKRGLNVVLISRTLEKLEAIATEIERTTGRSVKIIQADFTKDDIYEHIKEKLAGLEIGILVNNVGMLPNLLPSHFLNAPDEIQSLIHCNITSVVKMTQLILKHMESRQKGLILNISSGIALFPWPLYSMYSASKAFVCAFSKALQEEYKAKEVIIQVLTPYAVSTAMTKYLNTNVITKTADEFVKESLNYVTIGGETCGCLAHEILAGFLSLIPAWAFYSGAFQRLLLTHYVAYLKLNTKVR
Experiment: Enzymatic assay for type 3 17β-HSD
Assay type: biochemical
Conditions: 3.10^−6 M inhibitor
Excerpt: Enzymatic assay for types 1, 2, and 3 17β-HSD and types 1 and 3 3α-HSD”. Lower numbers of IC50 are desirable. Blank means that a determination was not done. The % of inhibition at the concentration of 3.10^−6M determined in preliminary screening test is reported in square braquets. Enzyme sources. […] Extraction of metabolites, migration on TLC and quantification were as described above for the assay of type 5 17β-HSD.
// 0 strictly below 90% in % of Inhibition of the Type 3 17β-HSD Activity; 1 otherwise

> print(dat)
                                   compound                                 tested.on  label
1  COCCOc1ccc2c(c1)CC[C@@H]1[C@@H]2CC[C@]2(C)C(=O)CC[C@@H]12 [EM-1073]  human type 3 17β-hydroxysteroid dehydrogenase (Homo sapiens, UniProt P37058)      0
2  CSCOc1ccc2c(c1)CC[C@@H]1[C@@H]2CC[C@]2(C)C(=O)CC[C@@H]12 [EM-1066]  human type 3 17β-hydroxysteroid dehydrogenase (Homo sapiens, UniProt P37058)      1
3  CSCCSc1ccc2c(c1)CC[C@@H]1[C@@H]2CC[C@]2(C)C(=O)CC[C@@H]12 [EM-1065]  human type 3 17β-hydroxysteroid dehydrogenase (Homo sapiens, UniProt P37058)      1
